The reported numbers originate from PubChem BioAssay.

This listing pairs compounds with measured viability.
- procedureDetails: drug combination growth inhibition, ovarian cancer – cell-based, oncology-focused library, rucaparib conditional, profiling panel (AID 1508598)
- conditionLabel: patient-derived ovarian cancer cells, CellTiter-Glo viability, 144 h; at 0.313 µM; OCI-P5x cells; without rucaparib; stronger effect = lower value
outcomeMeasure: viability (%)

[[record]]
smilesstructure = "COc1cc(OC2CCN(C)CC2)ccc1Nc1ncc2c(n1)n(C1CCCC1)c(=O)n2C"
recordedresult = 111

[[record]]
smilesstructure = "CN(NC(=O)CC(=O)NN(C)C(=S)c1ccccc1)C(=S)c1ccccc1"
recordedresult = 95.1

[[record]]
smilesstructure = "COc1ccc(-n2c(SCCCN3C(=O)c4cccc5cccc(c45)C3=O)nnc2-c2ccncc2)cc1"
recordedresult = 77.9

[[record]]
smilesstructure = "CN1CCCN(C(=O)c2cccc(-c3ccc(/C=C4/C(=O)Nc5ccc(Cl)cc54)o3)c2)CC1"
recordedresult = 94.8

[[record]]
smilesstructure = "Cc1ccc2c(=O)c3cccc(CC(=O)O)c3oc2c1C"
recordedresult = 19.4

[[record]]
smilesstructure = "Nc1nccc(Oc2ccc(NC(=O)c3c[nH]cc(-c4ccc(F)cc4)c3=O)cc2F)c1Cl"
recordedresult = 99.4

[[record]]
smilesstructure = "C/C(=C\\C(=O)Nc1ccccc1C(=O)O)c1ccc2ccccc2c1"
recordedresult = 110

[[record]]
smilesstructure = "CCOc1cc2ncc(C#N)c(Nc3ccc(F)c(Cl)c3)c2cc1NC(=O)/C=C/CN(C)C"
recordedresult = 103

[[record]]
smilesstructure = "c1ccc2c(CCNc3ccc(Nc4ccncc4)cc3)c[nH]c2c1"
recordedresult = 110

[[record]]
smilesstructure = "CCCS(=O)(=O)Nc1ccc(F)c(C(=O)c2c[nH]c3ncc(-c4ccc(Cl)cc4)cc23)c1F"
recordedresult = 105


====

- procedureDetails: viability loss in pontine glioma line – cell-based, SU-DIPG-XVII, MIPE5.0, CellTiter-Glo, qHTS, dose response (AID 1347060);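 on AC50: cells exposed to compound for 48 hours before viability readout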
- conditionLabel: CellTiter-Glo ATP luminescence
Inconclusive results are not listed. Calls of active or inactive are those of the source. The limit is not given here; nearly all actives have AC50 up to about 26 µM.
Labels: T = active, F = inactive

[[record]]
compound = "CC(C)(c1ccc(OCC(O)CO)cc1)c1ccc(OCC(O)CCl)cc1 (centres undefined)"
cat = "F"

[[record]]
compound = "Cc1onc(-c2ccc(F)cc2)c1COc1ccc(C(=O)N2CCS(=O)(=O)CC2)cn1"
cat = "F"

[[record]]
compound = "C[C@H](Nc1nc(N[C@H](C)C(F)(F)F)nc(-c2cccc(Cl)n2)n1)C(F)(F)F"
cat = "F"

[[record]]
compound = "COc1ccc(CCN2CCN(CCCc3ccccc3)CC2)cc1OC"
cat = "F"

[[record]]
compound = "Cc1cnc(Nc2ccc(CN3CCOCC3)cc2)nc1Nc1cccc(S(=O)(=O)NC(C)(C)C)c1"
cat = "T"

[[record]]
compound = "NC(=O)/C(=C/n1cnc(-c2cc(C(F)(F)F)cc(C(F)(F)F)c2)n1)c1cncnc1"
cat = "T"

[[record]]
compound = "COc1cc(F)c(F)c(Nc2ccc(I)cc2F)c1NS(=O)(=O)C1(C[C@H](O)CO)CC1"
cat = "T"

[[record]]
compound = "COc1ccc(Oc2cc(NCCC(F)(F)F)c3ncc(-c4ccc(C(=O)NC5CC5)c(C)c4)n3n2)c(F)c1F"
cat = "T"

[[record]]
compound = "COc1cc2c(cc1-c1c(C)noc1C)ncc1[nH]c(=O)n([C@H](C)c3ccccn3)c12"
cat = "F"


====

- procedureDetails: CRL1545 cell growth, single agent and combined, cisplatin and BGB IC20 combos (AID 1671464);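 further: cells exposed to compound for 96 hours before readout; 0% = vehicle DMSO and 100% = high DMSO killing control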
- conditionLabel: CRL1545 osteosarcoma cells, single agent, at 0.05 µM, stronger effect = higher value
Note to self: values exactly at -30% are TRUE. So inhibition at or above -30% is TRUE, below is FALSE.

[[record]]
compound = "C[C@]12CCCN1CC1=NNC(=O)c3cc(F)cc4[nH]c2c1c34"
cat = "TRUE"

[[record]]
compound = "Cc1ccc2nc(NCCN)c3ncc(C)n3c2c1"
cat = "TRUE"

[[record]]
compound = "CN(C)C/C=C/C(=O)Nc1ccc(C(=O)Nc2cccc(Nc3ncc(Cl)c(-c4c[nH]c5ccccc45)n3)c2)cc1"
cat = "FALSE"

[[record]]
compound = "Cc1ccc([N+](=O)[O-])cc1S(=O)(=O)N(C)/N=C/c1cnc2ccc(Br)cn12"
cat = "TRUE"

[[record]]
compound = "Nc1ncnc2c1c(-c1cnc3[nH]ccc3c1)nn2C1CCCC1"
cat = "TRUE"

[[record]]
compound = "CC(C)OC(=O)[C@H](C)N[P@](=O)(OC[C@H]1O[C@@H](n2ccc(=O)[nH]c2=O)[C@](C)(F)[C@@H]1O)Oc1ccccc1"
cat = "TRUE"

[[record]]
compound = "Nc1ccccc1NC(=O)c1ccc(CNc2nccc(-c3cccnc3)n2)cc1"
cat = "TRUE"

[[record]]
compound = "C=C1[C@H](CO)[C@@H](O)C[C@@H]1n1cnc2c(=O)[nH]c(N)nc21"
cat = "TRUE"

[[record]]
compound = "CS(=O)(=O)c1ccc(-c2nnc(/C=C/c3nnc(-c4ccc(C#N)cc4)o3)n2-c2ccccc2Cl)nc1"
cat = "TRUE"

[[record]]
compound = "Nc1nc(OCc2cc(Br)cs2)c2[nH]cnc2n1"
cat = "TRUE"

[[record]]
compound = "NC1CCC(N[C@@H]2C[C@H]2c2ccccc2)CC1 (some centres not stated)"
cat = "FALSE"

[[record]]
compound = "c1cc(Nc2cc(C3CC3)[nH]n2)nc(Nc2ccc3nc[nH]c3c2)n1"
cat = "TRUE"


====

- procedureDetails: growth inhibition of DIPG cells – cell-based, MIPE4.0 library, CellTiter-Glo luminescence, qHTS (AID 1347066);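 further: cells exposed to compound for 48 hours before readout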
- conditionLabel: SU-DIPG-VI viability, CellTiter-Glo ATP luminescence
Results filed as inconclusive are left out. Calls of active or inactive are those of the source. The limit is not given here; nearly all actives have AC50 up to about 30 µM.
outcomeMeasure: AC50

[[record]]
molecule = "O=C(O)C1(Cc2cccc(Nc3nccs3)n2)CCC(Oc2cccc(Cl)c2F)CC1 (stereo unspecified)"
recordedresult = "inactive"

[[record]]
molecule = "Nc1ncnc2c1c(-c1cccc(OCc3ccccc3)c1)cn2C1CC(CN2CCCC2)C1 (stereo unspecified)"
recordedresult = "1.18 µM (active)"

[[record]]
molecule = "CCc1cccc(CC)c1NC(=O)N1Cc2[nH]nc(NC(=O)c3ccc(N4CCN(C)CC4)cc3)c2C1"
recordedresult = "inactive"

[[record]]
molecule = "Cc1ccnc(NS(=O)(=O)c2ccc(NC(=O)Nc3ccc(S(=O)(=O)Nc4nccc(C)n4)cc3)cc2)n1"
recordedresult = "inactive"

[[record]]
molecule = "NC(=O)c1cccc(-c2cc(Nc3ccc(OC(F)(F)F)cc3)ncn2)c1"
recordedresult = "inactive"

[[record]]
molecule = "CC[C@]12C=CCN3CC[C@@]4(c5cc([C@@]6(C(=O)OC)C[C@H]7C[C@@H](C(C)(F)F)CN(Cc8c6[nH]c6ccccc86)C7)c(OC)cc5N(C)[C@H]4[C@@](O)(C(=O)OC)[C@@H]1OC(C)=O)[C@@H]32"
recordedresult = "8.33 µM (active)"

[[record]]
molecule = "Nc1cc(C(F)(F)F)c(-c2cc(N3CCOCC3)nc(N3CCOCC3)n2)cn1"
recordedresult = "1.48 µM (active)"

[[record]]
molecule = "N#CC1(c2ccc(NC(=O)c3cccnc3NCc3ccncc3)cc2)CCCC1"
recordedresult = "inactive"

[[record]]
molecule = "O=C(CCN1CCN(C(=O)OCc2cc(Cl)cc(Cl)c2)CC1)c1ccc2[nH]c(=O)oc2c1"
recordedresult = "inactive"

[[record]]
molecule = "CCOC(=O)C1=C[C@@H](OC(CC)CC)[C@H](NC(C)=O)[C@@H](N)C1"
recordedresult = "inactive"

[[record]]
molecule = "CCCCc1ccc(NS(=O)(=O)c2ccc(C)c(C(=O)N3CCN(c4cccc(C)c4C)CC3)c2)cc1"
recordedresult = "23.5 µM (active)"

[[record]]
molecule = "CCc1ccc(/C=C2/SC(=S)NC2=O)cc1"
recordedresult = "inactive"

[[record]]
molecule = "CC(/C=C1\\SC(=S)N(CC(=O)O)C1=O)=C\\c1ccccc1"
recordedresult = "inactive"

[[record]]
molecule = "CN1CCN(c2ncc(-c3cc(Cl)cc(Cl)c3Cl)c(N)n2)CC1"
recordedresult = "inactive"

[[record]]
molecule = "CN(C(=O)c1ccc(F)cc1C(F)(F)F)C1CCN(c2nnc(-c3ccnn3C)c3ccccc23)CC1"
recordedresult = "inactive"

[[record]]
molecule = "Nc1nc(N)c(N=O)c(OCC2CCCCC2)n1"
recordedresult = "14.8 µM (active)"

[[record]]
molecule = "CCOc1ccn(-c2ccc(F)cc2)c(=O)c1C(=O)Nc1ccc(Oc2ccnc(N)c2Cl)c(F)c1"
recordedresult = "inactive"

[[record]]
molecule = "c1ccc(-c2nn3c(c2-c2ccnc4cc(OCCN5CCOCC5)ccc24)CCC3)nc1"
recordedresult = "inactive"

[[record]]
molecule = "Nc1nc(OCc2ccccc2)c2[nH]cnc2n1"
recordedresult = "inactive"

[[record]]
molecule = "CCCn1c(=O)c2[nH]c(C34CC5CC3C[C@@H](C5)C4)nc2n(CCC)c1=O"
recordedresult = "inactive"

[[record]]
molecule = "Cn1c(=O)c(F)c(Nc2ccc(I)cc2F)c2c(=O)n(C[C@@H](O)CO)cnc21"
recordedresult = "inactive"

[[record]]
molecule = "CC1(C)OC2=C(C(=O)c3ccccc3C2=O)[C@H](NCc2ccccc2)[C@@H]1O"
recordedresult = "2.64 µM (active)"

[[record]]
molecule = "CCCC1OC2C[C@H]3[C@@H]4CCC5=CC(=O)C=C[C@]5(C)[C@H]4C(O)C[C@]3(C)[C@]2(C(=O)CO)O1 (stereo partly specified)"
recordedresult = "inactive"

[[record]]
molecule = "C[C@@]1(c2cc(-c3cncnc3)c(F)cc2F)CCSC(N)=N1"
recordedresult = "inactive"

[[record]]
molecule = "C[C@H]1[C@H](C)CC[C@]2(C(=O)O)CC[C@]3(C)C(=CC[C@@H]4[C@@]5(C)C[C@@H](O)[C@H](O)[C@@](C)(CO)[C@@H]5CC[C@]43C)[C@H]12"
recordedresult = "inactive"

[[record]]
molecule = "Cc1ccc2c(c1)C(=O)[C@]1(O)CCN(c3ccccc3)C1=N2"
recordedresult = "inactive"

[[record]]
molecule = "O=C(CO)N1CCC(c2[nH]nc(-c3ccc(Cl)cc3)c2-c2ccncn2)CC1"
recordedresult = "inactive"

[[record]]
molecule = "COc1cc(F)c(C(C)C)cc1-c1ccc(C(F)(F)F)cc1CN1C(=O)O[C@H](c2cc(C(F)(F)F)cc(C(F)(F)F)c2)[C@@H]1C"
recordedresult = "inactive"

[[record]]
molecule = "CC[C@@H]1C(=O)N(C)c2cnc(Nc3ccc(C(=O)NC4CCN(C)CC4)cc3OC)nc2N1C1CCCC1"
recordedresult = "20.9 µM (active)"

[[record]]
molecule = "COC1=C2C[C@@H](C)C[C@H](OC)[C@H](O)[C@@H](C)/C=C(\\C)[C@H](OC(N)=O)[C@@H](OC)/C=C/C=C(\\C)C(=O)NC(=CC1=O)C2=O"
recordedresult = "2.35 µM (active)"

[[record]]
molecule = "Cn1cc(-c2ccncc2)c(-c2ccc(OCc3ccc4ccccc4n3)cc2)n1"
recordedresult = "inactive"

[[record]]
molecule = "Cc1cc([C@@H](C)Nc2ccccc2C(=O)O)c2nc(N3CCOCC3)cc(=O)n2c1"
recordedresult = "38.2 µM (active)"

[[record]]
molecule = "CC(C)(C(=O)NCC(F)(F)C(F)(F)F)C(=O)N[C@@H]1C(=O)Nc2ccccc2-c2ccccc21"
recordedresult = "inactive"

[[record]]
molecule = "CCN(CC)CCCCNc1nc2cc(Cl)c(Cl)cc2nc1-c1ccc(-c2cccs2)s1"
recordedresult = "14.8 µM (active)"

[[record]]
molecule = "OCCCNc1cc(-c2ccnc(Nc3cccc(Cl)c3)n2)ccn1"
recordedresult = "inactive"

[[record]]
molecule = "CC1(C)OC2CC3C4CC(F)C5=CC(=O)C=CC5(C)C4C(O)CC3(C)[C@]2(C(=O)CO)O1 (stereo partly specified)"
recordedresult = "inactive"

